Recorded values, source patent US20240417463A1.

# Target Of Assay: T1, hCD47-ECD/Fc protein (Sinobiological) (human, UniProt Q08722 19-139, biotinylated in the Octet assay, sites not stated)
# T1 construct: extracellular domain; Bought protein; also called human CD47-Fc antigen; recombinant hCD47-ECD/Fc; not shown: Fc part of the bought fusion protein
# T1 sequence (Q08722 19-139 limits assumed): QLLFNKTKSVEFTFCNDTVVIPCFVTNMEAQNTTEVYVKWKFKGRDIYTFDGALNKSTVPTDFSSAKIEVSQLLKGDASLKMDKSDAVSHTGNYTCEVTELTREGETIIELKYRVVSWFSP
# Procedure Summary: BLI (Octet RED96), biotin-hCD47-ECD/Fc on SA sensors, 1:1 model;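 note: test antibodies as analytes, 300 s association then 300 s dissociation in running buffer, with benchmark reference antibodies run as controls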
Recorded measurements of koff, one per entry
Numeric answer only, unit s⁻¹ assumed.

Examples from the recorded data:
Binder	koff [s⁻¹]
TY25031 (antibody, V domains shown) VH: EVQLVESGGGLVQPGGSLRLSCAASGYSITSGYHWGWIRQAPGKGLEWIGRIYPSSGSTKYAQKFQGRVTISRDNSKNTLYLQLNSLRAEDTAVYYCARGVRGSYGWFDVWGQGTLVTVSS VL: DIQLTQSPSSLSASVGDRVTITCSASSRVSYVYWYQQKPGKAPKLLIYAASTLQSGVPSRFSGSGSGTDFTLTISSLQPEDFATYYCQHYVSSPRVYTFGQGTKVEIKR	8.1e-05
TY25040 (antibody, V domains shown) VH: QVQLVQSGAEVKKPGSSVKVSCKASGFTFSDYGIHWVRQAPGQGLEWIGRIYPSGGSTNYAQKFQGRVTITADKSTSTAYMELSSLRSEDTAVYYCARQRGYGRFAYWGQGTLVTVSS VL: DIQLTQSPSSLSASVGDRVTITCSASSSVGYVYWYQQKPGKAPKLLIYDASSLESGVPSRFSGSGSGTDFTLTISSLQPEDFATYFCQQYTYAPFTFGQGTKVEIKR	0.0002

Below: the item to evaluate.
**Query** Return the recorded koff value; entry: TY25034 (antibody, V domains shown) VH: EVQLVESGGGLVQPGGSLRLSCAASGYSITSGHYWNWIRQAPGKGLEWIGIISPSGGGTKYAQKFQGRVTISRDNSKNTLYLQLNSLRAEDTAVYYCARGARGYYALDYWGQGTLVTVSS VL: EIVLTQSPATLSLSPGERATLSCRASQSVRGRLLAWYQQKPGQAPRLLIYAASSLQSGVPARFSGSGSGTDFTLTISSLEPEDFAVYYCAQYLELPYTFGQGTKVEIKR
**Result** 0.000671
